- Tested on: SF-539 CNS
- protocol.text: NCI tumour cell line growth inhibition, 48 h
measurement.name: TGI

Some entries whose results are on file:
QUERY: // fetch SF-539 CNS TGI for NCCN1C(=O)C2C3c4ccccc4C(c4ccccc43)C2C1=O (stereo not drawn)
RESULT: > 100 µM

QUERY: Hi! What's the reported TGI for O=c1oc2ccc(-n3c(=O)c4ccccc4c4ccccc4c3=O)cc2c2ccccc12 on SF-539 CNS?
RESULT: > 100 µM

QUERY: Lab note: need TGI for CCCCN(CCCC)CCCn1c(=O)c2c3ccccc3n(C)c2n2nnc(-c3ccccc3)c12 on SF-539 CNS, anyone have it?
RESULT: > 100 µM

QUERY: Give recorded TGI with SF-539 CNS for the following molecule: O=S(O)CCCSSc1ccccc1
RESULT: 62.9 µM

QUERY: Item O=C(COC(=O)c1cccc2c(=O)c3ccccc3[nH]c12)Nc1ccccc1 with SF-539 CNS - TGI?
RESULT: > 100 µM

QUERY: Any idea what TGI came out for Cn1/c(=N\N=C(\CNCCO)[C@@H](O)[C@@H]2OC(c3ccccc3)OC[C@H]2O)sc2ccccc21 (stereo partly drawn) on SF-539 CNS?
RESULT: 32.7 µM

QUERY: Find TGI (SF-539 CNS) for the entry O=C(NCc1ccncc1)C12CC3CC(C1)CC(c1ccc(Cl)cc1)(C3)C2
RESULT: 28.1 µM

QUERY: Form field: TGI recorded for CC(=O)C1(N=Nc2ccc(S(N)(=O)=O)cc2)CCOC1=O (stereo not drawn) with SF-539 CNS (enter value)
RESULT: > 100 µM

Give TGI for each of the items listed below.
1. CCOC(=O)c1ccc(NC(=O)SCCC(=O)O)cc1
2. Fc1cccc2c1cc1ccc3cccc4ccc2c1c34
3. CNC(=O)Oc1cc(C)c(/C=C/c2cncc(C(=O)NC)c2)c(C)c1
4. O=C(CCC(C(=O)c1ccccc1)c1ccccc1)c1ccccc1 (stereo not drawn)
5. CCOP(=O)(OCC)C(C(=O)OC)C(=O)C(=O)Nc1c(C)cc(Br)cc1C (stereo not drawn)
6. CN1Cc2cc3c(cc2-c2ccccc21)OCO3
7. COc1cc2c(cc1OC)C(=O)Cc1ccc(OC)c(OC)c1CN(C)CC2
8. CSc1ncnc2c1ncn2C1OC(CO)C(O)OC1O (stereo not drawn)

RESULT:
1. > 100 µM
2. > 100 µM
3. > 25 µM
4. > 100 µM
5. > 100 µM
6. > 100 µM
7. > 100 µM
8. 16.9 µM

I need TGI for every entry listed below, if you could help.
1. CC(=N\N=C\c1ccccn1)/C(C)=N/N=C(C)/C(C)=N/N=C/c1ccccn1
2. COc1ccccc1/C=C1\CCC(CCN2CCOCC2)C1=O (stereo not drawn)
3. COC(=O)/C=C(\S/C(=N\n1cc(C(=O)OC)c(C(=O)OC)c1-c1ccc(C)cc1)c1ccc(C)cc1)C(=O)OC
4. O=c1c2cc([N+](=O)[O-])ccc2n2n1CCCC2

RESULT:
> 100 µM
> 100 µM
33 µM
> 100 µM

For each of the molecules below, state TGI.
1. S=c1nc(Cl)cc2[nH]c(Cl)cn12
2. O=C1C2CN(Cc3ccccc3)CC1CN(CC1CC1)C2
3. CCOP(=O)(OCC)[C@H]1OC(C)(C)O[C@@H]1CO

RESULT:
1: 5.69 µM; 2: > 100 µM; 3: > 100 µM

Origin of values: PubChem BioAssay (NCI)
